meta.source: patent US20160257732A1

# studySystem: HA of A/Puerto Rico/8/34 (H1N1) (influenza A virus, UniProt P03452 18-565)
# Sequence (P03452 18-565 limits assumed): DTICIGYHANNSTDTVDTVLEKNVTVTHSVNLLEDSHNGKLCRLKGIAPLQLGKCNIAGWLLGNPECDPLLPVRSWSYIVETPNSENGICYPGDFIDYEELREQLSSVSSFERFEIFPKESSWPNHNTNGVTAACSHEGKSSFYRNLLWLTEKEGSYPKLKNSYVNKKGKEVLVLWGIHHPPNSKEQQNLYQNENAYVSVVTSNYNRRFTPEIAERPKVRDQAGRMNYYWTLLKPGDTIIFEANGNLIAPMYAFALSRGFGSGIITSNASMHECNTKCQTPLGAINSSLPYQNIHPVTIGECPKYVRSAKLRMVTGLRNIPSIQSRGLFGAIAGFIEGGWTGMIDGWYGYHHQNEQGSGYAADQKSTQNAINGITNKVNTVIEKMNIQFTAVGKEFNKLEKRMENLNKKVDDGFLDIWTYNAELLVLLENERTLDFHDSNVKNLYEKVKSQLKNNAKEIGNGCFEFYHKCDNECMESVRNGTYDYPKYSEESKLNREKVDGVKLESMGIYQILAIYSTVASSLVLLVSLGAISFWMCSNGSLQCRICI
# assaySummary: cell-based or functional assay
Provide the reported Neutralization IC50, H1-PR34-OR of each item.
Answers are plain numbers, in µg/mL.

Reference set (2 entries):
{"binder": "Antibody 3 (antibody, V domains shown) VH: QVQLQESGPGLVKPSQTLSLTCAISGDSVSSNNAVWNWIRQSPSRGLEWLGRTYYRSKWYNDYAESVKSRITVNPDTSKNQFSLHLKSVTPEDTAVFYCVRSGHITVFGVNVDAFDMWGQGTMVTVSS VL: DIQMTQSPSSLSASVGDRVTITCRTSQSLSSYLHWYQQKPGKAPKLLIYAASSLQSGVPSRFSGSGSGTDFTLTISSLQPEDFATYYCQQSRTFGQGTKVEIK", "testResult": 1.39}
{"binder": "Antibody 12 (antibody, V domains shown) VH: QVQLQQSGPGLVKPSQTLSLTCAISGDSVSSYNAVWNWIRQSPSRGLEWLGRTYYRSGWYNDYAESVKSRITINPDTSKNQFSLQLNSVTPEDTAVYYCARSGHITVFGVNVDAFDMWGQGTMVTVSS VL: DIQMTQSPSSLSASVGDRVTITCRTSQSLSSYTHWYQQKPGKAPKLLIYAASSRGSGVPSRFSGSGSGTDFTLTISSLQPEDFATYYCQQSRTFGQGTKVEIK", "testResult": 0.69}

In the following, a different binder is considered.
Neutralization IC50, H1-PR34-OR recorded for this binder, Antibody 15 (antibody, V domains shown) VH: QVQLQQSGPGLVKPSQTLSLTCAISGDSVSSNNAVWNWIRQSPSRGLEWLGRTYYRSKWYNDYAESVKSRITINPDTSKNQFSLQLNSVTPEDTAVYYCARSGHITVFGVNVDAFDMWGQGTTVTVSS VL: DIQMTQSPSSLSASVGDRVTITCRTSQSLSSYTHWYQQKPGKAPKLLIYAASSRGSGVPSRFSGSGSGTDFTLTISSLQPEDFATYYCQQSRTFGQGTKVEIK , is 0.9
